# credit: paper PMC10302202

# measurementNotes: clinical
# experimentalParameters: human, in vivo, im, 11.25 mg, detection level in urine, 6 h, mean
recordedEndpoint: level at 6 h (ng/mL)

>>> measurement("CCNC(=O)[C@@H]1CCCN1C(=O)[C@H](CCCNC(=N)N)NC(=O)[C@H](CC(C)C)NC(=O)[C@@H](CC(C)C)NC(=O)[C@H](Cc1ccc(O)cc1)NC(=O)[C@H](CO)NC(=O)[C@H](Cc1c[nH]c2ccccc12)NC(=O)[C@H](Cc1c[nH]cn1)NC(=O)[C@@H]1CCC(=O)N1")
106
